- study.system: CSF1R (human) (UniProt P07333)
- Sequence (P07333 whole entry, looked up): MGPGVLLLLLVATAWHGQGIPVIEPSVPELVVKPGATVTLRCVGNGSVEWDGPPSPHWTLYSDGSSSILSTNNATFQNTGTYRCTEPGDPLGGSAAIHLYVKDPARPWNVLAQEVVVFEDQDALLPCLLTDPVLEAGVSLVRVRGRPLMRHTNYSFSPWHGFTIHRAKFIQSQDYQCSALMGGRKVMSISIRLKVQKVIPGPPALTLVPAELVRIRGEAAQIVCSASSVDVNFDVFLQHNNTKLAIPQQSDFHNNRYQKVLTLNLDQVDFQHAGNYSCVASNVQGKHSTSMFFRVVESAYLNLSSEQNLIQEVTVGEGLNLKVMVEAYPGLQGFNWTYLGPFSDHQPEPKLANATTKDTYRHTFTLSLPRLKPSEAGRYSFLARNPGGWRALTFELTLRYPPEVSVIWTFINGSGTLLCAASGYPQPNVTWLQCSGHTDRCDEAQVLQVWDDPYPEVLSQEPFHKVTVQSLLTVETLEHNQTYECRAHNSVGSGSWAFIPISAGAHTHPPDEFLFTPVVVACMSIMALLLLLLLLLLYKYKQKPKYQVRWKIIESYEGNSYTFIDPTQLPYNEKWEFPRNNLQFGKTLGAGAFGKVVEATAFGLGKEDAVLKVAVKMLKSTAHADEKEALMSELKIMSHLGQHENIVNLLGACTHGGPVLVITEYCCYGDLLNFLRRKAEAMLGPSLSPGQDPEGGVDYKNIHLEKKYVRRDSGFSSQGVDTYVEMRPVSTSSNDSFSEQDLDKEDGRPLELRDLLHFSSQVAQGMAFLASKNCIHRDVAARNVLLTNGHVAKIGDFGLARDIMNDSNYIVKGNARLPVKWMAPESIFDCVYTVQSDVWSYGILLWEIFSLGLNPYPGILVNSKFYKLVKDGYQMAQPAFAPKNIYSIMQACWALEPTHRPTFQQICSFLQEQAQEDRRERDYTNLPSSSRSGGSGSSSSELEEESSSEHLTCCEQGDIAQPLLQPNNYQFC
- protocol.text: KINOMEscan competition binding
- test.settings: compound 10.0 µM
Catalogue of kinase still bound, per cent of control values
Form entry: value (%) — number only.

Some entries whose results are on file:
CCN1CCN(Cc2ccc(NC(=O)c3ccc(C)c(Oc4ccnc5[nH]ccc45)c3)cc2C(F)(F)F)CC1
0
COc1cc(N2CCC(N3CCN(C)CC3)CC2)ccc1Nc1ncc(Cl)c(Nc2ccccc2S(=O)(=O)C(C)C)n1
0
CCOc1cc(N2CCC(N3CCCCC3)CC2)ccc1Nc1nc(Nc2ccccc2S(=O)(=O)C(C)C)c2cn[nH]c2n1
99

Lookup: kinase still bound, per cent of control / CSF1R (human) (UniProt P07333) / `CCN1CCN(Cc2ccc(NC(=O)c3ccc(C)c(/C=C/c4cnc(Nc5cc(N6CCNCC6)nc(C)n5)cn4)c3)cc2C(F)(F)F)CC1`
1.1

###

- study.system: FGR (human)
- protocol.text: KINOMEscan competition binding
- test.settings: compound 10.0 µM
measurement.kind: kinase still bound, per cent of control

Some entries whose results are on file:
CCN1CCN(Cc2ccc(NC(=O)c3ccc(C)c(Oc4ccnc5[nH]ccc45)c3)cc2C(F)(F)F)CC1
1.2%
CCOc1cc(N2CCC(N3CCCCC3)CC2)ccc1Nc1nc(Nc2ccccc2S(=O)(=O)C(C)C)c2cn[nH]c2n1
82%
COc1cc(N2CCC(N3CCN(C)CC3)CC2)ccc1Nc1ncc(Cl)c(Nc2ccccc2S(=O)(=O)C(C)C)n1
2.8%

Let's switch to this molecule now.
Bench note: what kinase still bound, per cent of control did `CCN1CCN(Cc2ccc(NC(=O)c3ccc(C)c(/C=C/c4cnc(Nc5cc(N6CCNCC6)nc(C)n5)cn4)c3)cc2C(F)(F)F)CC1` show?
4.5%

###

Catalogue of kinase still bound, per cent of control values
- Test system: ABL1 (human), P00519 [M351T]
- protocol.text: KINOMEscan competition binding
- test.settings: compound 10.0 µM
Please format your answer as a value with the unit trailing.

Some entries whose results are on file:
CCN1CCN(Cc2ccc(NC(=O)c3ccc(C)c(Oc4ccnc5[nH]ccc45)c3)cc2C(F)(F)F)CC1
0.35%
CCOc1cc(N2CCC(N3CCCCC3)CC2)ccc1Nc1nc(Nc2ccccc2S(=O)(=O)C(C)C)c2cn[nH]c2n1
53%
CCN1CCN(Cc2ccc(NC(=O)c3ccc(C)c(/C=C/c4cnc(Nc5cc(N6CCNCC6)nc(C)n5)cn4)c3)cc2C(F)(F)F)CC1
3.8%

Let's switch to this compound now.
Bench note: what kinase still bound, per cent of control did `COc1cc(N2CCC(N3CCN(C)CC3)CC2)ccc1Nc1ncc(Cl)c(Nc2ccccc2S(=O)(=O)C(C)C)n1` show?
5%

###

- study.system: DDR1 (human) (UniProt Q08345)
- Sequence (Q08345 whole entry, looked up): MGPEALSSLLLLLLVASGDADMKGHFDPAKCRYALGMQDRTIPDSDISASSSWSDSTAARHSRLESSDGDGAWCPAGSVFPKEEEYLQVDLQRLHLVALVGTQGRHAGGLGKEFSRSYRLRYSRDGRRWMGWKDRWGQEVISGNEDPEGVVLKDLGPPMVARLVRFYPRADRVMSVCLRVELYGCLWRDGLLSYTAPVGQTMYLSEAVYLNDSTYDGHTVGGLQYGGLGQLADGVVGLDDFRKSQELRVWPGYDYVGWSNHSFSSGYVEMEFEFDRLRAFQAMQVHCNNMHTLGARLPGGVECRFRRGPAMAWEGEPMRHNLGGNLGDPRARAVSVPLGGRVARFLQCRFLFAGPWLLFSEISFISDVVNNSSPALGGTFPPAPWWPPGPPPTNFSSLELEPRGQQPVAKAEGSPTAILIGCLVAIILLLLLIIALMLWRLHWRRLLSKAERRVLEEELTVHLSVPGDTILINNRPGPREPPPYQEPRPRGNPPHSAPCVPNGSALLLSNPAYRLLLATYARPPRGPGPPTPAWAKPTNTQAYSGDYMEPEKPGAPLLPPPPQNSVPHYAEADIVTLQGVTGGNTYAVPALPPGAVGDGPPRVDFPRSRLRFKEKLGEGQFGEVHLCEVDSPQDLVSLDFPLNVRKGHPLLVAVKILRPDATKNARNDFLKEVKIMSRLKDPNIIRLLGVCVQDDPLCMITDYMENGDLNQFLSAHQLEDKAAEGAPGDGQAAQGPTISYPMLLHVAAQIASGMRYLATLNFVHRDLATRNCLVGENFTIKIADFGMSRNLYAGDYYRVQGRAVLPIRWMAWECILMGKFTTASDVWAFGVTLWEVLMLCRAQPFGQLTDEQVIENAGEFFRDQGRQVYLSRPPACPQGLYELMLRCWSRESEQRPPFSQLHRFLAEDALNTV
- protocol.text: KINOMEscan competition binding
- test.settings: compound 10.0 µM
measurement.kind: kinase still bound, per cent of control (%)
Form entry: value (%) — number only.

Some entries whose results are on file:
COc1cc(N2CCC(N3CCN(C)CC3)CC2)ccc1Nc1ncc(Cl)c(Nc2ccccc2S(=O)(=O)C(C)C)n1
0.05
CCN1CCN(Cc2ccc(NC(=O)c3ccc(C)c(Oc4ccnc5[nH]ccc45)c3)cc2C(F)(F)F)CC1
0.05
CCN1CCN(Cc2ccc(NC(=O)c3ccc(C)c(/C=C/c4cnc(Nc5cc(N6CCNCC6)nc(C)n5)cn4)c3)cc2C(F)(F)F)CC1
0

Bench note: what kinase still bound, per cent of control did `CCOc1cc(N2CCC(N3CCCCC3)CC2)ccc1Nc1nc(Nc2ccccc2S(=O)(=O)C(C)C)c2cn[nH]c2n1` show?
100
